Biological target: Met kinase domain (GST fusion protein) (Homo sapiens, UniProt P08581)
Construct: Purified GST fusion protein containing the Met kinase domain
Sequence (P08581 1078-1345 limits assumed): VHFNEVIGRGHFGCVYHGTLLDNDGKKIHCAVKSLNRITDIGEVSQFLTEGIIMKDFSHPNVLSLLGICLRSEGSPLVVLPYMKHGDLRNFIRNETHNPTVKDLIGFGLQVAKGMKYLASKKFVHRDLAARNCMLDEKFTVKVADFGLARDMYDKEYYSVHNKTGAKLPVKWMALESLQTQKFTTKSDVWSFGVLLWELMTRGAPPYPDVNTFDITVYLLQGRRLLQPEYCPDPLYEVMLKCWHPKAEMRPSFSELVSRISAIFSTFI
Assay: Met transphosphorylation assay (ELISA, poly(glu-tyr) substrate)
Assay type: biochemical
Conditions: plain numbers in column Met IC50 (μM) of Table 2; read-out: Met IC50
Listing: IC50 of selected compounds
Lab book: enter the figure in µM, no units written.

Nc1ncc(-c2ccccn2)cc1OCc1c(Cl)cccc1Cl	2.84
CC(Oc1cc(-c2cc(C(=O)N3CCN(C)CC3)ccn2)cnc1N)c1c(Cl)ccc(F)c1Cl (centres unmarked)	0.0742
Nc1ccc(-c2cnc(N)c(OCc3c(Cl)cccc3Cl)c2)cn1	0.578
CC(Oc1cc(-c2cccc(C(=O)NCCN3CCCC3)c2)cnc1N)c1c(Cl)cccc1Cl (centres unmarked)	0.13
Nc1ncc(-c2ccccn2)cc1OCc1ccccc1Cl	8.24

IC50 reported for this compound CC(Oc1cc(C#CCNC(=O)NCCN2CCOCC2)cnc1N)c1c(Cl)ccc(F)c1Cl (centres unmarked) : 0.055

IC50 reported for this compound CC(Oc1cc(-c2ccnc(C(=O)N3CCN(C)CC3)c2)cnc1N)c1c(F)ccc(F)c1Cl (centres unmarked) : 0.0626

IC50 reported for this compound CC(Oc1cc(C#CCNC(=O)CN2CCOCC2)cnc1N)c1c(Cl)ccc(F)c1Cl (centres unmarked) : 0.027

* * *

Molecular target: HGFR (Homo sapiens, UniProt P08581)
Construct: purchased Upstate 14-526
Sequence (P08581 974-1390 limits assumed): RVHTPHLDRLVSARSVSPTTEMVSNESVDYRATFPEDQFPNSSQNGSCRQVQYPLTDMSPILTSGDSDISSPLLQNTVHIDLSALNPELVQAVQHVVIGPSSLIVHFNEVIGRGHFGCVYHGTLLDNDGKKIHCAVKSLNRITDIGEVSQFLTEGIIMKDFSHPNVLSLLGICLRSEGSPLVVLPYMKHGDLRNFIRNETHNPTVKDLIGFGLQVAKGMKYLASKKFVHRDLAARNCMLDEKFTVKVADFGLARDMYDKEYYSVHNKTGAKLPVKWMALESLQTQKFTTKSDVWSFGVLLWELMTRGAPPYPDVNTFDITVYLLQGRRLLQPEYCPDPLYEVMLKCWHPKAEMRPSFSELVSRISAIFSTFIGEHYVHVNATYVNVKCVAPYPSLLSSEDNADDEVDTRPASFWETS
Assay: HGFR continuous-coupled spectrophotometric assay
Assay type: biochemical
Settings: Table 3, column 'Ki (μM) or I (%)': cells without % sign; read-out: Ki
measure: Ki (µM)
Lab book: enter the figure in µM, no units written.

CC(Oc1cc(-c2ccc(OCCN3CCCC3)nc2)cnc1N)c1c(Cl)ccc(F)c1Cl (stereo not shown)	0.094

The observed Ki for C=Cc1cnc(N)c(OC(C)c2c(Cl)ccc(F)c2Cl)c1 (stereo not shown) when tested with HGFR (Homo sapiens, UniProt P08581) stands at 0.655

The observed Ki for COc1ccc(-c2cnc(N)c(OC(C)c3c(Cl)ccc(F)c3Cl)c2)c(OC)c1 (stereo not shown) when tested with HGFR (Homo sapiens, UniProt P08581) stands at 0.217

The observed Ki for CC(Oc1cc(-c2ccc(C(=O)NC3CNC3)cc2)cnc1N)c1c(Cl)ccc(F)c1Cl (stereo not shown) when tested with HGFR (Homo sapiens, UniProt P08581) stands at 0.045

* * *

Target: Met kinase domain (GST fusion protein) (Homo sapiens)
Construct: Purified GST fusion protein containing the Met kinase domain
Assay: Met transphosphorylation assay (ELISA, poly(glu-tyr) substrate);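 further: Cell-free ELISA with plate-bound poly(Glu:Tyr 4:1) phosphorylated by GST-fused Met kinase domain plus ATP and Mn2+, phosphotyrosine detected by anti-phosphotyrosine antibody with HRP and ABTS read-out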
Format: biochemical
Details: read-out: Met IC50
measure: pIC50
In simple prose, pIC50 is minus the logarithm base ten of a concentration in moles per litre.

Here is how some molecules turned out for pIC50.
Nc1ncc(-c2ccc(C(=O)NCCN3CCOCC3)cc2)nc1OCc1cccc(F)c1C(F)(F)F	6.66
CC(Oc1nc(-c2ccc(NS(=O)(=O)CCN(C)C)cc2)cnc1N)c1c(Cl)ccc(F)c1Cl (centres unmarked)	6.66
Nc1ncc(-c2ccc(OCC(=O)O)cc2)cc1OCc1c(Cl)cccc1Cl	5.62
Nc1ncc(-c2ccc(NS(=O)(=O)CCNC3CC3)cc2)nc1OCc1c(F)ccc(F)c1Cl	5.89

The observed pIC50 for `CN(C)[C@H]1CCN(C(=O)c2ccc(-c3cnc(N)c(OCc4c(Cl)cccc4Cl)c3)cc2)C1` when tested with Met kinase domain (GST fusion protein) (Homo sapiens) stands at 6.33

The observed pIC50 for `Nc1ncc(-c2ccc(C(=O)N3CC[C@H](N)C3)cc2)cc1OCc1ccc(Cl)cc1Cl` when tested with Met kinase domain (GST fusion protein) (Homo sapiens) stands at 5.92

These measurements were taken from patent US20050009840A1.
